# System: A549 NSCLC
# ASSAY_EXPLANATION: NCI tumour cell line growth inhibition, 48 h; in the data active means GI50 below about 0.43 µM; inactive means the rest
Your response should consist of one outcome taken from active, inactive

Some solved cases for reference:
MOLECULE: CN(c1cccc(C(=O)O)c1)c1cc(O/N=[N+](\[O-])N(C)C)c([N+](=O)[O-])cc1[N+](=O)[O-]
TARGET_UNDER_TEST: A549 NSCLC
CATEGORY: inactive

MOLECULE: COc1ccc(Cn2cc3c(c2-c2ccccc2)CCc2cnoc2-3)cc1
TARGET_UNDER_TEST: A549 NSCLC
CATEGORY: active

-- ask I would be grateful if you could indicate the recorded call for `Nc1c(C(=O)c2cccc(-c3cccnc3)c2)cnn1-c1ccc(F)cc1` .
-- reply inactive

-- ask I would be grateful if you could indicate the recorded call for CCN1C(=O)N(CC)C2C1NN=c1s/c(=C3\C(=O)Nc4ccccc43)c(=O)n12 (stereo not given) .
-- reply inactive

-- ask I would be grateful if you could indicate the recorded call for `COc1ccc(CCN2CCCn3c2nc2ccccc2c3=O)cc1` .
-- reply active

-- ask I would be grateful if you could indicate the recorded call for `COc1ccc2[nH]c3ccc4cc[n+](CCN5CCC(C6CCN(CC[n+]7ccc8ccc9[nH]c%10ccc(OC)cc%10c9c8c7)CC6)CC5)cc4c3c2c1` .
-- reply inactive

-- ask I would be grateful if you could indicate the recorded call for `O=C(CSSCC(=O)c1ccc(Cl)cc1)c1ccc(Cl)cc1` .
-- reply inactive

-- ask I would be grateful if you could indicate the recorded call for `COc1ccc(-n2nc(C)c3c(Nc4ccc(NC(=O)Nc5cccc(C(F)(F)F)c5)cc4)ncnc32)cc1` .
-- reply inactive

-- ask I would be grateful if you could indicate the recorded call for `CN(C)CCNC(=O)c1ccc2c(c1)oc1cc3ccccc3c(=O)n12` .
-- reply inactive

-- ask I would be grateful if you could indicate the recorded call for `O=[N+]([O-])c1ccc(Sc2cccc[n+]2[O-])c2nonc12` .
-- reply inactive

====

Attribute: TGI
# System: A549 NSCLC
# ASSAY_EXPLANATION: NCI tumour cell line growth inhibition, 48 h

Observe how each entry below is paired with its result.
COMPOUND: COc1cc2c(cc1OC)C(CCN)=NCC2
TGI: > 100 µM
//
COMPOUND: O=[N+]([O-])c1ccc2c(c1)nc1n2C(c2c(F)cccc2F)SC1 (stereo not given)
TGI: > 100 µM
//
COMPOUND: Cc1nc(-n2nc(-c3ccccc3)cc2-c2ccccc2)sc1C(=O)CC(=O)C(=O)Nc1ccc(Cl)c(Cl)c1
TGI: > 100 µM
//
COMPOUND: Cc1cn(S(=O)(=O)c2ccccc2)c2c(OCc3ccccc3)cc([N+](=O)[O-])cc12
TGI: > 100 µM

GET /value?item= `O=C1c2c(c3c4cc(F)ccc4oc3c3[nH]c4ccccc4c23)C(=O)N1O` &field=TGI returns > 100 µM

GET /value?item= `CCN(CC)Cc1cc(N=Nc2c(O)ccc3c(N=Nc4ccc(O)c(CN(CC)CC)c4)c(O)ccc23)ccc1O` &field=TGI returns > 23.5 µM

GET /value?item= `COc1ccc(C2=C(c3ccc(OC)cc3)C(=O)OC2)cc1` &field=TGI returns > 100 µM

GET /value?item= `Cc1cccc(CNc2c3ccccc3nc3ccccc23)c1` &field=TGI returns 4.86 µM

GET /value?item= O=CNC(Cc1cnc[nH]1)C(=O)O (stereo not given) &field=TGI returns > 100 µM

GET /value?item= `COc1ccc2c(=O)c(-c3cc(OC)c(OC)cc3OC)coc2c1` &field=TGI returns > 100 µM

====

# Tested on: A549 NSCLC
# ASSAY_EXPLANATION: NCI tumour cell line growth inhibition, 48 h
REPORTED_METRIC: TGI

Observe how each entry below is paired with its result.
COMPOUND: Cc1cc(=O)[nH]c2cc(NC(=O)C(C)NC(=O)C(C)NC(=O)C(C)NC(=O)OC(C)(C)C)ccc12 (configuration not stated)
TGI: > 15 µM
--
COMPOUND: CC(O)C(CO)NC(=O)C1CSSCC(NC(=O)C(N)Cc2ccccc2)C(=O)NC(Cc2ccccc2)C(=O)NC(Cc2c[nH]c3ccccc23)C(=O)NC(CCCCN)C(=O)NC(C(C)O)C(=O)N1 (configuration not stated)
TGI: > 100 µM
--
COMPOUND: COc1ccccc1/C=C1\C(=O)N(C(=O)Cc2ccccc2)N=C1C
TGI: > 100 µM
--
COMPOUND: Nc1cc(CO)cc(Nc2c3ccccc3nc3ccccc23)c1
TGI: 38.9 µM
--
COMPOUND: CC1=C(C)C(=O)OC(C(C)(O)C2(O)CC3OC34C3CC(O)C56OC5C=CC(=O)C6(C)C3CCC42C)C1 (configuration not stated)
TGI: 15.5 µM
--
COMPOUND: CC(C)(C)C1=CC(=N/N=c2\scc(-c3ccccc3)n2Cc2ccccc2)C=C(C(C)(C)C)C1=O
TGI: > 100 µM
--
COMPOUND: O=C(O)c1cccc([As]=[As]c2cccc(C(=O)O)c2)c1 (configuration not stated)
TGI: > 100 µM
--
COMPOUND: COC(=O)NC1(NC(=O)OC)NC(=O)c2ccccc2N1
TGI: > 100 µM

GET /value?item= `CN1CCN(C2=C(Cl)C(=O)c3ccccc3C2=O)CC1` &field=TGI returns 11.2 µM

GET /value?item= O=C(CC1(O)C(=O)Nc2ccccc21)c1ccc(Cl)c(Cl)c1 (configuration not stated) &field=TGI returns > 100 µM

GET /value?item= `O=c1c(NCc2ccccc2)c(C2(c3ccccc3F)SCCCS2)c1=O` &field=TGI returns > 100 µM

GET /value?item= C=CCCC(O)c1cc(C)c(O)c(C)c1 (configuration not stated) &field=TGI returns > 100 µM

====

# Tested on: PC-3 prostate
# ASSAY_EXPLANATION: NCI tumour cell line growth inhibition, 48 h; in the data active = GI50 below about 0.43 µM; inactive = the rest
Your response should consist of one outcome taken from 1.0 = active, 0.0 = inactive

MOLECULE: CN1CCN(C2=C(Cl)C(=O)c3ccccc3C2=O)CC1
CATEGORY: 0.0

MOLECULE: CCC/C=C/C=C/C(=O)OC1/C(=C/C(=O)OC)CC2CC(C(C)O)OC(=O)CC(O)CC3CC(OC(C)=O)C(C)(C)C(O)(CC4C/C(=C/C(=O)OC)CC(/C=C/C(C)(C)C1(O)O2)O4)O3 (stereo not drawn)
CATEGORY: 0.0

Would you kindly look at the next entry?
-- ask I would be grateful if you could indicate the recorded call for CCN1C(=O)N(CC)C2C1NN=c1s/c(=C3\C(=O)Nc4ccccc43)c(=O)n12 (stereo not drawn) .
-- reply 1.0

====

# Test system: M14 melanoma
# ASSAY_EXPLANATION: NCI tumour cell line growth inhibition, 48 h
REPORTED_METRIC: TGI

Observe how each entry below is paired with its result.
COMPOUND: CC1=C[P+](c2ccccc2)(c2ccccc2)c2ccccc2O1
TGI: > 100 µM

COMPOUND: O=C1c2ccccc2C(=O)N1c1ccc(Cc2ccc(N3C(=O)c4ccccc4C3=O)cc2)cc1
TGI: > 100 µM

COMPOUND: COc1ccc2c(c1OC)C(=O)C2
TGI: > 100 µM

GET /value?item= `CC(C)(C)C1=CC(=N/N=c2\scc(-c3ccccc3)n2Cc2ccccc2)C=C(C(C)(C)C)C1=O` &field=TGI returns > 100 µM

GET /value?item= CCCC(=O)OCC1OC(n2cc(F)c(=O)[nH]c2=O)CC1OC(=O)CCC (stereo not given) &field=TGI returns > 10 µM

====

# System: SF-295 CNS
# ASSAY_EXPLANATION: NCI tumour cell line growth inhibition, 48 h
REPORTED_METRIC: TGI

MOLECULE: COc1ccc(C2=Nn3c(nnc3-c3ccc(F)c(Cl)c3)SC2)cc1
TARGET_UNDER_TEST: SF-295 CNS
TGI: > 100 µM
--
MOLECULE: CC(=O)C1=C(C)N(c2ccccc2)C2(O)C3=C(C(=O)c4ccccc4C3=O)C(O)=CC12Cl (stereo not given)
TARGET_UNDER_TEST: SF-295 CNS
TGI: 40.6 µM
--
MOLECULE: COP(=O)(OC)C(N)Cc1c[nH]c2ccccc12 (stereo not given)
TARGET_UNDER_TEST: SF-295 CNS
TGI: > 100 µM
--
MOLECULE: COc1cc(/C=C2\C(=O)N(c3cccc(NC(C)=O)c3)C(c3ccccc3)S2(=O)=O)cc(OC)c1OC (stereo not given)
TARGET_UNDER_TEST: SF-295 CNS
TGI: > 100 µM

GET /value?item= `O=c1c(NCc2ccccc2)c(C2(c3ccccc3F)SCCCS2)c1=O` &field=TGI returns > 100 µM

====

Attribute: TGI
# Tested on: RXF 393 renal
# ASSAY_EXPLANATION: NCI tumour cell line growth inhibition, 48 h
State the answer as a number, implicitly in µM.

Observe how each entry below is paired with its result.
MOLECULE: CC1=NNC(=O)C1C1(C(=O)O)CC(c2c[nH]c3ccccc23)=NC(=S)N1 (stereo not drawn)
UNIT_TEXT: µM
ENDPOINT_VALUE: 94.3
//
MOLECULE: CC(NCCN(C)C)C1CCC2C3CCc4cc(O)ccc4C3CCC12C (stereo not drawn)
UNIT_TEXT: µM
ENDPOINT_VALUE: 3.69
//
MOLECULE: CS(=O)(=O)OCCN(CCOS(C)(=O)=O)c1ccc(C=Nc2ccc(-c3csc(Cc4ccccc4)n3)cc2)c(Cl)c1
UNIT_TEXT: µM
ENDPOINT_VALUE: 98.6
//
MOLECULE: COC(=O)CNC(=O)C(=O)c1c(O)c(O)c(C(C)C)c2cc(C)c(-c3c(C)cc4c(C(C)C)c(O)c(O)c(C(=O)C(=O)NCC(=O)OC)c4c3O)c(O)c12
UNIT_TEXT: µM
ENDPOINT_VALUE: 8.39
//
MOLECULE: O=C(Nc1cc(Cl)c(I)c(Cl)c1)C(F)(F)F
UNIT_TEXT: µM
ENDPOINT_VALUE: 34.5

GET /value?item= `O=C(Cn1c2ccc(Br)cc2c2nc3ccccc3nc21)NCc1ccccc1` &field=TGI returns 26.9
